# Measurement target: T1, murine urokinase-type plasminogen activator (muPA) wild type (murine, UniProt P06869 21-433)
# T1 construct: cDNA encoding full length muPA; Two-chain form after plasmin; also called muPA wt; muPA-wt; source: HEK293 6E, transfected; treated with plasmin
# T1 sequence (P06869 21-433): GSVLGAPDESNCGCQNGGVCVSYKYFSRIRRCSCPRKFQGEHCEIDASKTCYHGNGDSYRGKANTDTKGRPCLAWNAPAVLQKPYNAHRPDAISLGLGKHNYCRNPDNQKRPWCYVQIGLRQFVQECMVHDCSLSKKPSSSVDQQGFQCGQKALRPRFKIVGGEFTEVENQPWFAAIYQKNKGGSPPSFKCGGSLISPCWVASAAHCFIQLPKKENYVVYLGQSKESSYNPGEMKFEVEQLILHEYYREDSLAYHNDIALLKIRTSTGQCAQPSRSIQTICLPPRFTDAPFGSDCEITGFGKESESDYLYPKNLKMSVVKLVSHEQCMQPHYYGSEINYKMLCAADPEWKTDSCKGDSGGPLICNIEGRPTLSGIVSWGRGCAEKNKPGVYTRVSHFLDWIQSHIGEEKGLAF
# Assay overview: SPR; Biacore T200; uPA variant amine-coupled to a CM5 chip (about 500 RU); peptides injected in HBS with 0.1% BSA, 30 µL/min, 25°C, pH 7.4; 1:1 kinetic fit; KD = koff/kon
# Condition set: both partners purified
Bridge positions count the residues as written; N and C are the ends. Square brackets hold non-standard residues; d marks the D form. Ends that are not written are not given here. Ala(1-amidino-4-piperidyl) = N=C(N)N1CCC(C[C@H](N)C(=O)O)CC1; Phe(4-guanidino) = N=C(N)Nc1ccc(C[C@H](N)C(=O)O)cc1
Binary call on Kd with cut-off 400 nM: strictly below means true, and equality or higher means false.

- Binder: "CPAYS[Phe(4-guanidino)]YLDC (disulfide 1-10) [mupain-1-12]"
  Classification: "true"
- Binder: "CPAYS[Ala(1-amidino-4-piperidyl)]YLAC (disulfide 1-10; not fully specified) [Mupain-1-16 D9A]"
  Classification: "true"
- Binder: "CPAYSRYLAC (disulfide 1-10 (inferred), mupain-1 with D9A; Rink amide linker resin; C-terminal amide surmised; source: synthetic peptide (solid-phase synthesis, HPLC purified)) [Mupain-1 D9A]"
  Classification: "false"
- Binder: "CPAYS[Ala(1-amidino-4-piperidyl)]YLDC (disulfide 1-10; not fully specified) [mupain-1-16]"
  Classification: "true"
